- Tested on: Fasciola hepatica
- Test summary: In vivo for fasciolicidal activity against Fasciola hepatica infections in rats following s.c. administration.
Metric name: Dose (mg/kg)
Expressed in mg/kg, but write only the number.

Solved entries:
> print(dat)
                                        mol  metric.name   unit  reading
1  Cc1cc(C(=O)c2ccc(Cl)cc2)cc(C(=O)Nc2cc(Cl)cc(Cl)c2)c1O         Dose  mg/kg      100
2  Cc1cc(C(=O)c2ccc(Br)cc2)cc(C(=O)Nc2ccc([N+](=O)[O-])cc2Cl)c1O         Dose  mg/kg      3.1
3  O=C(c1ccc(Cl)cc1)c1ccc(O)c(C(=O)Nc2ccc([N+](=O)[O-])cc2Cl)c1         Dose  mg/kg       25

Query block: Form field: reported Dose of Cc1cc(C(=O)c2ccc(Cl)cc2)cc(C(=O)Nc2ccc(Cl)c(Cl)c2)c1O
Result block: 100

Query block: Quick check: Dose of Cc1cc(C(=O)c2ccc(Cl)cc2Cl)cc(C(=O)Nc2ccc([N+](=O)[O-])cc2Cl)c1O ?
Result block: 6.3
